- experimental system: human CB1 receptor (Homo sapiens, UniProt P21554)
- Construct: expressed in transfected cells; host or cells: human embryonic kidney (HEK) cells, Semliki Forest Virus system, membrane preparations
- Sequence (P21554 whole entry): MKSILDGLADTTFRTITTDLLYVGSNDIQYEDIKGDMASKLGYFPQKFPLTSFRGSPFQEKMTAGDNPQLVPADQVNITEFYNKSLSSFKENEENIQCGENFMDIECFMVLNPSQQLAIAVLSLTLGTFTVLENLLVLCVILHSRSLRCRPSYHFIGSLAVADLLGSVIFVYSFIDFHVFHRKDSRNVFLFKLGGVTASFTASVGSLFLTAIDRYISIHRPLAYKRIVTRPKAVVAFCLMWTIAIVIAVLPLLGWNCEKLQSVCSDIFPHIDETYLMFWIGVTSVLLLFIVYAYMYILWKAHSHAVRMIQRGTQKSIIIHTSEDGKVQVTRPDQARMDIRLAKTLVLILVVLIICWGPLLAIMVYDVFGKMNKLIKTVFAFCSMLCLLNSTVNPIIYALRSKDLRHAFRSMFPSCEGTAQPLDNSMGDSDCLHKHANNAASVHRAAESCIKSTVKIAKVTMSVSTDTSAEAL
- method notes: CB1 receptor affinity ([3H]-CP-55,940 displacement, HEK cell membranes)
- Format: binding
- experimental conditions: displacement of [3H]-CP-55,940 at 10 μM; read-out: CB1 receptor affinity [% inhibition @ 10 μM]
assay endpoint: inhibition at 10 µM (%)

> print(dat)
                                    molecule  quantitative.result
 1  O=C(NN1CCC(O)CC1)c1cnc(OCC(F)(F)F)c(C2CCCCC2)c1                    8
 2  CN(NC(=O)c1cnc(OCC(F)(F)F)c(C2CC2)c1)c1ccc(F)cc1                   15
 3  C[C@@H]1CN(NC(=O)c2cnc(OCC3CC3)c(C3CC3)c2)C[C@H](C)O1                   19
 4  CN(CCCO)NC(=O)c1cnc(OCC(F)(F)F)c(-c2ccc(Cl)cc2)c1                   46
 5  O=C(NN1CC(CN2CCOCC2)OC1=O)c1cnc(OCC(F)(F)F)c(-c2ccc(Cl)cc2)c1 (centres unmarked)                   36
 6  CN(NC(=O)c1cnc(OCC(F)(F)F)c(-c2ccc(Cl)cc2)c1)c1ccccc1                   45
 7  O=C(NN1CCC(O)CC1)c1cnc(OC2CCC2)c(-c2ccc(Cl)cc2)c1                   14
 8  CN(NC(=O)c1cnc(OC2CCC2)c(C2CC2)c1)c1ccc(C#N)cc1                   27
 9  CN(NC(=O)c1cnc(OCC2CC2)c(C2CC2)c1)c1ccccc1                   28
10  O=C(NNc1ccc(F)cc1)c1cnc(OC2CCC2)c(-c2ccco2)c1                   43
11  CS(=O)(=O)N1CCN(NC(=O)c2cnc(OCC(F)(F)F)c(-c3ccc(Cl)cc3)c2)CC1                   23
12  O=C(NN1CCOCC1)c1cnc(OCC(F)(F)F)c(C2CCCC2)c1                   19
13  O=C(NN1CCOCC1)c1cnc(OCC(F)(F)F)c(C2CCCCC2)c1                   29
14  CC(C)(C)OC(=O)N1CCC(c2cc(C(=O)NN3CCC(CCO)CC3)cnc2OCC(F)(F)F)CC1                   -3
15  CC(C)(C)OC(=O)N1CCCN1C(=O)c1cnc(OCC(F)(F)F)c(-c2ccc(Cl)cc2)c1                   40
16  CN(NC(=O)c1cnc(OCC2CC2)c(C2CC2)c1)c1ccc(F)cc1                   29
17  CN(NC(=O)c1cnc(OCC(F)(F)F)c(C2CCCCC2)c1)c1ccccc1                   39

---

- experimental system: human CB1 receptor (Homo sapiens, UniProt P21554)
- Construct: expressed in transfected cells; host or cells: human embryonic kidney (HEK) cells, Semliki Forest Virus system, membrane preparations
- method notes: CB1 receptor affinity ([3H]-CP-55,940 displacement, HEK cell membranes)
- Assay type: binding
- experimental conditions: displacement of [3H]-CP-55,940 at 10 μM; read-out: CB1 receptor affinity [% inhibition @ 10 μM]
- Protocol: The affinity of the compounds of the invention for cannabinoid receptors was determined using membrane preparations of human embryonic kidney (HEK) cells in which the human CB1 receptor is transiently transfected using a Semliki Forest Virus system in conjunction with [3H]-CP-55,940 as radioligand. […] Radioactivity on the filter was measured by scintillation counting. […]
# maps each entry to its inhibition at 10 µM
assay endpoint: inhibition at 10 µM (%)

> print(dat)
                                    compound  quantitative.result
 1  N#Cc1ccc(-c2cc(C(=O)NN3CCC(O)CC3)cnc2OCC(F)(F)F)cc1                   10
 2  CN(NC(=O)c1cnc(OCC2CC2)c(C2CC2)c1)c1ccc(C#N)cc1                   47
 3  O=C(NN1CCC(O)CC1)c1cnc(OC2CCC2)c(-c2ccco2)c1                   15
 4  O=C(NNCC(F)(F)F)c1cnc(OCC(F)(F)F)c(-c2ccc(Cl)cc2)c1                   42
 5  CN(NC(=O)c1cnc(OC2CCC2)c(C2CC2)c1)c1ccc(F)cc1                   25
 6  CN(NC(=O)c1cnc(OCC(F)(F)F)c(C2CCCC2)c1)c1ccccc1                   41
 7  CN(NC(=O)c1cnc(OCC(F)(F)F)c(C2CCN(C(=O)OC(C)(C)C)CC2)c1)c1ccc(F)cc1                   50
 8  O=C(NN1CCCC1)c1cnc(OCC(F)(F)F)c(C2CCCCC2)c1                   39
 9  CN(NC(=O)c1cnc(OCC(F)(F)F)c(C2CC2)c1)c1ccc(C#N)cc1                   36
10  O=C(NN1CCCC1=O)c1cnc(OCC(F)(F)F)c(C2CCCC2)c1                   13
11  N#Cc1ccc(-c2cc(C(=O)NN3CCC(CCO)CC3)cnc2OCC(F)(F)F)cc1                   37
12  N#Cc1ccc(-c2cc(C(=O)NN3CCOCC3)cnc2OCC(F)(F)F)cc1                   47

This collection of values is drawn from patent US8648099B2.
